Assay: Example 11: plasma pharmacokinetics (toxicokinetics) of tozadenant in mice after twice daily oral administration
Assay type: in vivo, Crl:CD1(ICR) mice
Conditions: male, Crl:CD1(ICR), mouse, plasma, po, 100 mg/kg/day, Group 1, Male, 100 mg/kg/day (50 mg/kg/dose), oral, dosing at 0, 8 hr; read-out: AUC0-24
Experimental: The plasma pharmacokinetics and exposure levels of tozadendant have been documented in mice after oral administration, the same route of administration as tozadenant was dosed in the oncology efficacy studies. […] Centrifugation was carried out at approximately 4-8° C. within one hour of collection. […] Samples were analyzed at Covance. Tozadenant was quantitated using protein precipitation followed by liquid chromatography mass spectrometry technique for quantification. […]
PROPERTY: AUC(0-t) (ng·h/mL)
Numbers only here, please. The scale is ng·h/mL.

-- ask In one line, give reported AUC(0-t) of the entry COc1ccc(N2CCOCC2)c2sc(NC(=O)N3CCC(C)(O)CC3)nc12 [SYN-115] .
-- reply 3520

* * *

Assay: Example 11: plasma pharmacokinetics (toxicokinetics) of tozadenant in mice after twice daily oral administration
Type: in vivo, Crl:CD1(ICR) mice
Settings: female, Crl:CD1(ICR), mouse, plasma, po, 2000 mg/kg/day, Group 4, Female, 2000 mg/kg/day (1000 mg/kg/dose), oral, dosing at 0, 8 hr; read-out: AUC0-24
PROPERTY: AUC(0-t) (µg·h/mL)
Write the number in µg·h/mL without appending the unit.

-- ask Answer with reported AUC(0-t) of COc1ccc(N2CCOCC2)c2sc(NC(=O)N3CCC(C)(O)CC3)nc12 [SYN-115]
-- reply 116

* * *

Experiment: Example 13: calculation of predicted human dose from mouse and human PK
Settings: mouse, plasma, oral; mice, 3 mg/kg efficacious dose; read-out: Point estimate AUC (linear extrapolation)
PROPERTY: AUC

-- ask Give the measured AUC for COc1ccc(N2CCOCC2)c2sc(NC(=O)N3CCC(C)(O)CC3)nc12 [SYN-115]
-- reply ~106 ng·h/mL

* * *

Test: Example 11: plasma pharmacokinetics (toxicokinetics) of tozadenant in mice after twice daily oral administration
Type: in vivo, Crl:CD1(ICR) mice
Details: female, Crl:CD1(ICR), mouse, plasma, po, 2000 mg/kg/day, Group 4, Female, 2000 mg/kg/day (1000 mg/kg/dose), oral, dosing at 0, 8 hr; read-out: AUC8-24
Procedure: The plasma pharmacokinetics and exposure levels of tozadendant have been documented in mice after oral administration, the same route of administration as tozadenant was dosed in the oncology efficacy studies. […] Centrifugation was carried out at approximately 4-8° C. within one hour of collection. […] Samples were analyzed at Covance. Tozadenant was quantitated using protein precipitation followed by liquid chromatography mass spectrometry technique for quantification. […]
PROPERTY: AUC (µg·h/mL)
Reply with just the number (in µg·h/mL).

-- ask Look up and report measured AUC for this entry: COc1ccc(N2CCOCC2)c2sc(NC(=O)N3CCC(C)(O)CC3)nc12 [SYN-115]
-- reply 80.6

* * *

Assay: Example 11: plasma pharmacokinetics (toxicokinetics) of tozadenant in mice after twice daily oral administration
Format: in vivo, Crl:CD1(ICR) mice
Conditions: male, Crl:CD1(ICR), mouse, plasma, po, 2000 mg/kg/day, Group 4, Male, 2000 mg/kg/day (1000 mg/kg/dose), oral, dosing at 0, 8 hr; read-out: AUC8-24
PROPERTY: AUC (ng·h/mL)
Your answer is read as ng·h/mL, so omit the unit and give the number.

-- ask Report AUC, nothing else, for this compound: COc1ccc(N2CCOCC2)c2sc(NC(=O)N3CCC(C)(O)CC3)nc12 [SYN-115]
-- reply 22500

Data credit: patent US20220088024A1
